# experimentSummary: Mouse pharmacokinetics study
# Assay type: in vivo
# setupConditions: mouse, plasma; CD-1 mice, IV 5 mg/kg, 20% Hydroxypropyl-beta-cyclodextrin
measurementKind: half-life (h)

>>> val("CCN1CC(NC(=O)c2c(F)cncc2Nc2ccc(I)cc2F)C1")
0.625
>>> val("C#Cc1ccc(Nc2cncc(F)c2C(=O)NC2CNC2)c(F)c1")
9.03

----------
# Test system: P-glycoprotein (MDR1)
# experimentSummary: MDCK-MDR1 permeability assay
# Assay type: in vitro ADME, canine
# setupConditions: dog; MDCK-MDR1, Papp(B−A)/Papp(A−B)
# Y = efflux ratio at 120 min below 3 (exclusive); N = efflux ratio at 120 min at/above 3

>>> group("C#Cc1ccc(Nc2cncc(F)c2C(=O)NC2CNC2)c(F)c1")
"N"
>>> group("O=C(NC1CNC1)c1c(Cl)cncc1Nc1ccc(I)cc1F")
"N"
>>> group("CN1CC(NC(=O)c2c(F)cncc2Nc2ccc(I)cc2F)C1")
"Y"
>>> group("O=C(NC1CNC1)c1c(F)cncc1Nc1ccc(I)cc1F")
"N"
>>> group("CCN1CC(NC(=O)c2c(F)cncc2Nc2ccc(I)cc2F)C1")
"Y"
